Where these numbers come from: patent US10221144B2

Target: E. coli Topoisomerase IV (Escherichia coli, UniProt P0AFI2+P20083)
Construct: purchased Inspiralis, UK
Sequence (P20083 whole entry): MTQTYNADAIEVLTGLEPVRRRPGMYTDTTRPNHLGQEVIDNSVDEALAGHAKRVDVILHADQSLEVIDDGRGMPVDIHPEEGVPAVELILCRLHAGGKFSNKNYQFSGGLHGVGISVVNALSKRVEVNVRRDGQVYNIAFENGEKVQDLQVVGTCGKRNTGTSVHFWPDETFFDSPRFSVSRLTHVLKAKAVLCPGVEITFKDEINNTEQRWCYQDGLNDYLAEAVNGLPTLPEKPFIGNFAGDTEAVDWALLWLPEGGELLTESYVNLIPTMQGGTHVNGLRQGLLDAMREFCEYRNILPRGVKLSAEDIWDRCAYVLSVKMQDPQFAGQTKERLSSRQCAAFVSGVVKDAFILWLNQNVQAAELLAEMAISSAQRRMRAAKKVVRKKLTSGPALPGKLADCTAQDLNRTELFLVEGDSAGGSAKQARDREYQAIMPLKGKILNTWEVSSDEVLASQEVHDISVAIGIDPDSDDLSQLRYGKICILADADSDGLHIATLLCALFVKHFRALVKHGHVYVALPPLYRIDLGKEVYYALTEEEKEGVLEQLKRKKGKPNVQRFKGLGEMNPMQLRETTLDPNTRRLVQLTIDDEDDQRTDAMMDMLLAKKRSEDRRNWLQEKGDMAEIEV
Sequence (P0AFI2 whole entry): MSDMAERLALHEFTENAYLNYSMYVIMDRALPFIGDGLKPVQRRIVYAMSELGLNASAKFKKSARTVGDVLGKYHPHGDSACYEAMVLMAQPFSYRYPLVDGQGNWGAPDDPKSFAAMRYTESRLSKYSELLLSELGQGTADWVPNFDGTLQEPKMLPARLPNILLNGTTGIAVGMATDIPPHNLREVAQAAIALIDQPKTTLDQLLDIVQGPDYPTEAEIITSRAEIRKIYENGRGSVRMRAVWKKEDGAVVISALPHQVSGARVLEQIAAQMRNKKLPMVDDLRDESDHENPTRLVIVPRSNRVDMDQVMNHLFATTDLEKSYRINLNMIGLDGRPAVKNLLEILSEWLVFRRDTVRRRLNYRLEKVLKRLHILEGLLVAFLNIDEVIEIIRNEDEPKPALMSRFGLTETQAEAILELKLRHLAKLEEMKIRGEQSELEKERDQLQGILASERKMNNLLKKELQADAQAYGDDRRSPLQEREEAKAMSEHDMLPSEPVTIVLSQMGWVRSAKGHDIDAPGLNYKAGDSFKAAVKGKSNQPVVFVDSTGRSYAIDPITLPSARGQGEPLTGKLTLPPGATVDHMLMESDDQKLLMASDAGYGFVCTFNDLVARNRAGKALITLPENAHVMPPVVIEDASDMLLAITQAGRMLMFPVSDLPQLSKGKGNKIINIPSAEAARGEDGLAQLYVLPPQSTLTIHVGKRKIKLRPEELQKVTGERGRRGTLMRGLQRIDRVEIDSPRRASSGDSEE
Experiment: Topoisomerase IV decatenation assay (E. coli)
Format: biochemical
Settings: E. coli; conc. 50 μM; n/a = not active; read-out: % inhibition Topo IV
Procedure: The above compounds were tested for the inhibition of the enzyme DNA gyrase in a gyrase supercoiling assay and for the inhibition of the enzyme topoisomerase IV in a decatenation assay, in both Gram positive and Gram negative bacteria, according to the following methods. […] Inhibitory activity was expressed as percent of inhibition versus the positive control. The supercoiled or decatenated DNA bands obtained as described in Example 1 were analysed as follows. […]
Readings of inhibition at 50 µM for the listed compounds
Enter your answer as a number in %; do not include the unit.

1. O=c1oc2ccc(F)cc2c2cc(CNC3CCN(c4nccc5nccnc45)CC3)[nH]c12 [Compound 196]; 100
2. COc1cnc2ccnc(N3CCC(NCc4cc5c([nH]4)c(=O)oc4ccc(F)cc45)CC3)c2n1 [Compound 199]; 100
3. O=c1cc(NCCCN2CCN(c3nccc4ccccc34)CC2CO)c2ccccc2o1 (centres unmarked) [Compound 90]; 81
4. C[N+]1(CCCNc2cc(=O)oc3ccccc23)CCN(c2nccc3ccccc23)CC1 [Compound 124]; 62

# context switch: different compound, same inhibition at 50 µM
Lookup: Write down inhibition at 50 µM measured for item O=c1cc(NCCC[N+]2([O-])CCN(c3nccc4ccc(F)cc34)CC2)c2ccccc2o1 [Compound 105]
Found: 66

* * *

target: S. aureus DNA gyrase (Staphylococcus aureus, UniProt P0A0K8+P20831); construct: purchased Inspiralis, UK; experiment: DNA gyrase supercoiling assay (S. aureus); format: biochemical; conditions: S. aureus; concentration-response curve, eight half-log concentrations 0.1 to 300 μM; read-out: IC50 DNA gyrase
Sequence (P0A0K8 whole entry): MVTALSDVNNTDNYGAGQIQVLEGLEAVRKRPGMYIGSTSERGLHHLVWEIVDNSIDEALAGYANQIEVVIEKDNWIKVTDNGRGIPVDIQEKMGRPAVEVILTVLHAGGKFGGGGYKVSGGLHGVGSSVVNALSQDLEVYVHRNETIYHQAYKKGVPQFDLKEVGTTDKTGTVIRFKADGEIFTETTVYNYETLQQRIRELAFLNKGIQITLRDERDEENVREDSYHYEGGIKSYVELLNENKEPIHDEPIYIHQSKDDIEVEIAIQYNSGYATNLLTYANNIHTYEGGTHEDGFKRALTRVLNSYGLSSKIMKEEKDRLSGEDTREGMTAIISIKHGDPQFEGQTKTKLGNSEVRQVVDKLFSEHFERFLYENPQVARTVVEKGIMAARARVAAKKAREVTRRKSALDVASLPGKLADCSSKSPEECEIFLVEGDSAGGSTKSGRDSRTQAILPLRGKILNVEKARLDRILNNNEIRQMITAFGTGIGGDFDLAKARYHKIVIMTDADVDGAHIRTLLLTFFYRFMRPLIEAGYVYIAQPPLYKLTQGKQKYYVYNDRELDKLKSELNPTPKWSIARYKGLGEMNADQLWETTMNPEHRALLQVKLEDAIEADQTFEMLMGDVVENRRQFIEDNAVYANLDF
Sequence (P20831 whole entry): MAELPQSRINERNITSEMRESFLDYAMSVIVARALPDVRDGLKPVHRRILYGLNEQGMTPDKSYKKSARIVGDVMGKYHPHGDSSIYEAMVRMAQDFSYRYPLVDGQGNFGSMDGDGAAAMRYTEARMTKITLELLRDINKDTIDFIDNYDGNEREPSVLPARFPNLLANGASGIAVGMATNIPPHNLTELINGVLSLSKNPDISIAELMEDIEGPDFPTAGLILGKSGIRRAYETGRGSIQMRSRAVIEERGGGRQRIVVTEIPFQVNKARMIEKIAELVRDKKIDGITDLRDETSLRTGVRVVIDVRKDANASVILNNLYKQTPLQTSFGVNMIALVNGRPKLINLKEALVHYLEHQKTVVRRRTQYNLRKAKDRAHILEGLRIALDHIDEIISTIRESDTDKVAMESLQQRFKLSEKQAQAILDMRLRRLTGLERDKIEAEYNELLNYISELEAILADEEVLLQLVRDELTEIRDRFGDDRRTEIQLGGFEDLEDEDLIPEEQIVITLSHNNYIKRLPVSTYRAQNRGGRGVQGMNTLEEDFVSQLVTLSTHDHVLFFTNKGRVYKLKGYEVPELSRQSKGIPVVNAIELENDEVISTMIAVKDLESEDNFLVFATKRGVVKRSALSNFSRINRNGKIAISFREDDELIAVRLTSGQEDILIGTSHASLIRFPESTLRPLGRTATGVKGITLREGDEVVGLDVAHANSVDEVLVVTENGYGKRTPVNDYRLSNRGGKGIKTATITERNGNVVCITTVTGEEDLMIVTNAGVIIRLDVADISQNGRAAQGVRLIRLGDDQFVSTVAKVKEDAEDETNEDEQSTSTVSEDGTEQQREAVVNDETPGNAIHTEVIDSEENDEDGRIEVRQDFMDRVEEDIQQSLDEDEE
Experimental readout: IC50 (µM)
Enter your answer as a number in µM; do not include the unit.

Lookup: Write down IC50 measured for item [O-][n+]1ccc2ccc(F)cc2c1Cl
Found: 4.7

* * *

Readings of inhibition at 50 µM for the listed molecules
target: S. aureus Topoisomerase IV (Staphylococcus aureus, UniProt P0C1S7+P0C1U9); construct: purchased Inspiralis, UK; test: Topoisomerase IV decatenation assay (S. aureus); format: biochemical; conditions: read-out: % inhibition Topo IV
Sequence (P0C1S7 whole entry): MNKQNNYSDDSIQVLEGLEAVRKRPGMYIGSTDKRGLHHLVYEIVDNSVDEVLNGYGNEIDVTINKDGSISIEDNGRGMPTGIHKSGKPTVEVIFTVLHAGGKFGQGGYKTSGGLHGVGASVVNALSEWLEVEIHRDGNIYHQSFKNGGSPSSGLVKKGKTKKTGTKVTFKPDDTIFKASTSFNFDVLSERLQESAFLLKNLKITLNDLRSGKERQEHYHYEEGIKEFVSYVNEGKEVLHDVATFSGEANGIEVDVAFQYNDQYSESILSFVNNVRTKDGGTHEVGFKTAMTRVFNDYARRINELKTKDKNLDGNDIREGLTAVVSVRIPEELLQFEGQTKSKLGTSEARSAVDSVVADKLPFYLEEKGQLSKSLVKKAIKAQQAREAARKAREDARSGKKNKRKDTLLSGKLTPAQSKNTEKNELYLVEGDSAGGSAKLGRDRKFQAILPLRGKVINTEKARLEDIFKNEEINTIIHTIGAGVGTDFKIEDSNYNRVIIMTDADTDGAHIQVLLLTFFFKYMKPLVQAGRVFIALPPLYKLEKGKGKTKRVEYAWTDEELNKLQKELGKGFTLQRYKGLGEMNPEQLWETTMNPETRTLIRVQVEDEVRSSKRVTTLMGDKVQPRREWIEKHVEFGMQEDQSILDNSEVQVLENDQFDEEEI
Sequence (P0C1U9 whole entry): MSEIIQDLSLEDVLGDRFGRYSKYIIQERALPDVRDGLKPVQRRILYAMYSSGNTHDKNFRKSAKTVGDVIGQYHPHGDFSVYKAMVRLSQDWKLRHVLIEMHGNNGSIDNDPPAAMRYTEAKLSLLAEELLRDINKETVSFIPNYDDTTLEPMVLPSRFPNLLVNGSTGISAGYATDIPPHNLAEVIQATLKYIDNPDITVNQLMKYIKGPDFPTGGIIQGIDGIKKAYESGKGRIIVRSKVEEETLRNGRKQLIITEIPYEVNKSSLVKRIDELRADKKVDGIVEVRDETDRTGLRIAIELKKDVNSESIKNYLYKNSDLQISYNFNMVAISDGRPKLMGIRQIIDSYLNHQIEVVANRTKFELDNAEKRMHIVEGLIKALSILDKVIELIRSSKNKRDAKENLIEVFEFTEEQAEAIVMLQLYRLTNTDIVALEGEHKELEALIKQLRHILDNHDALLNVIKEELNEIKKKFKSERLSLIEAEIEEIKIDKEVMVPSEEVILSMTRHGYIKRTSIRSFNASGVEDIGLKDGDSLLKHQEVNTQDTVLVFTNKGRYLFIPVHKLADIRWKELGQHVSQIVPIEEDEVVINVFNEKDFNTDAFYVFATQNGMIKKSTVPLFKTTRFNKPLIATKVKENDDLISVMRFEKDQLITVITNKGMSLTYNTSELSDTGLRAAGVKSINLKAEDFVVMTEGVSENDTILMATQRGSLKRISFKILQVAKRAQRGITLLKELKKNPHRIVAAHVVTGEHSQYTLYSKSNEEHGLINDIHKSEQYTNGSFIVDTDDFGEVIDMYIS
Where a name gives a salt, the structure may show the parent alone.
Enter your answer as a number in %; do not include the unit.

Lookup: Write down inhibition at 50 µM measured for item O=CNC(CN1CCN(c2nccc3ccc(F)cc23)CC1)c1nc2c(=O)oc3ccccc3c2[nH]1 (centres unmarked) [Compound 159, hydrochloride]
Found: 100

Lookup: Write down inhibition at 50 µM measured for item CCOC(=O)C1CN(c2nccc3ccc(F)cc23)CCC1NCc1cc2c(=O)oc3ccccc3c2[nH]1 (racemic) [Compound 184]
Found: 69

Lookup: Write down inhibition at 50 µM measured for item O=c1oc2ccc(F)cc2c2cc(CNC3CCN(c4nccc5nccnc45)CC3)[nH]c12 [Compound 196]
Found: 89

Lookup: Write down inhibition at 50 µM measured for item O=c1cc(NCC(O)CN2CCN(c3nccc4ncccc34)CC2)c2cc(F)ccc2o1 (centres unmarked) [Compound 166]
Found: 97

* * *

molecular target: S. aureus Topoisomerase IV (Staphylococcus aureus, UniProt P0C1S7+P0C1U9); construct: purchased Inspiralis, UK; assay: Topoisomerase IV decatenation assay (S. aureus); format: biochemical
pIC50: −log10 of the molar value.
Class Condition met: pIC50 at least 6. Class Condition not met: pIC50 below 6.

1. Fc1ccc2ccnc(N3CCN(CCNCc4cc5c(cn4)OCCC5)CC3)c2c1 [Compound 150]; Condition not met

We next turn to a different compound, shown below.
Lookup: Quick check, pIC50 >= 6? O=c1oc2ccc(F)cc2c2cc(CNC3CCN(c4nccc5nccnc45)CC3)[nH]c12 [Compound 196]
Found: Condition met

* * *

biological target: E. coli Topoisomerase IV (Escherichia coli, UniProt P0AFI2+P20083); construct: purchased Inspiralis, UK; assay: Topoisomerase IV decatenation assay (E. coli); type: biochemical; conditions: E. coli; conc. 200 μM; n/a = not active; read-out: % inhibition Topo IV
Experimental readout: inhibition at 200 µM (%)
Enter your answer as a number in %; do not include the unit.

1) O=C1Cc2cccc(CCCN3CCC(Nc4cc(=O)oc5ccccc45)CC3)c2N1; 78
2) O=c1cc(NC2CCN(CCCc3cccc4ocnc34)CC2)c2ccccc2o1; 53
3) O=c1cc(NC2CCN(CCCc3nccc4ccccc34)CC2)c2ccccc2o1; 100
4) O=c1cc(NCCCN2CCN(c3nccc4ccccc34)CC2)c2ccccc2o1; 100

# context switch: different compound, same inhibition at 200 µM
Lookup: Write down inhibition at 200 µM measured for item c1ccc2c(N3CCN(CCCNCc4cc5c(cn4)OCS5)CC3)nccc2c1
Found: 94

* * *

target: S. aureus DNA gyrase (Staphylococcus aureus, UniProt P0A0K8+P20831); construct: purchased Inspiralis, UK; assay: DNA gyrase supercoiling assay (S. aureus); type: biochemical; details: S. aureus; conc. 50 μM; n/a = not active
Experimental readout: inhibition at 50 µM (%)
Enter your answer as a number in %; do not include the unit.

1. O=c1nc(NCC(O)CN2CCN(c3nc(F)cc4ccc(OC(F)(F)F)cc34)CC2)c2cc(F)ccc2o1 (stereo not shown); 50
2. O=c1nc(NCC(O)CN2CCN(c3nccc4ncc(C(F)(F)F)cc34)CC2)c2cc(F)ccc2o1 (stereo not shown); 30
3. COc1ccc2ncc(F)c(N3CCC(NCc4cc5c([nH]4)c(=O)oc4ccc(F)cc45)CC3)c2n1; 88

Lookup: Write down inhibition at 50 µM measured for item O=c1nc(NCC(O)CN2CCN(c3nc(F)cc4ccc(F)cc34)CC2)c2cc(F)ccc2o1 (stereo not shown)
Found: 100

* * *

biological target: E. coli Topoisomerase IV (Escherichia coli, UniProt P0AFI2+P20083); construct: purchased Inspiralis, UK; assay: Topoisomerase IV decatenation assay (E. coli); assay type: biochemical
Structures can show the parent of a compound that is named as a salt.
class 1 if IC50 is below 2 µM. class 0 if not; exact matches included in class 0.

Observe how each entry below is paired with its result.
1) O=c1oc2ccc(F)cc2c2cc(CNC3CCN(c4nccc5nccnc45)CC3)[nH]c12; class 0
2) O=c1cc(NCCCN2CCN(c3nccc4ccc(Cl)cc34)CC2)c2ccccc2o1; class 0
3) COc1ccc2ncc(F)c(N3CCC(NCc4cc5c([nH]4)c(=O)oc4ccc(F)cc45)CC3)c2n1; class 1
4) O=c1cc(NCC(O)CN2CCN(c3nccc4ncccc34)CC2)c2cc(F)ccc2o1 (stereo not shown); class 1
5) O=c1nc(NCC(O)CN2CCN(c3nc(F)cc4ccc(F)cc34)CC2)c2cc(F)ccc2o1 (stereo not shown); class 1
6) COc1ccc2ncc(C#N)c(N3CCC(NCc4cc5c([nH]4)c(=O)oc4ccc(F)cc45)CC3)c2n1; class 1

Lookup: # check: IC50 < 2 µM for O=c1cc(NCCCN2CCN(c3nccc4ccc(F)cc34)CC2)c2c(o1)CCOC2
Found: class 0

Lookup: # check: IC50 < 2 µM for O=c1oc2ccccc2c2[nH]c(C(O)CN3CCN(c4nccc5ccc(F)cc45)CC3)nc12 (stereo not shown) [Compound 152, hydrochloride]
Found: class 1

Lookup: # check: IC50 < 2 µM for O=c1nc(NCC(O)CN2CCN(c3nccc4nccnc34)CC2)c2cc(F)ccc2o1 (stereo not shown)
Found: class 1

Lookup: # check: IC50 < 2 µM for O=c1nc(NCC(O)CN2CCN(c3nccc4ncc(F)cc34)CC2)c2cc(F)ccc2o1 (stereo not shown)
Found: class 1

Lookup: # check: IC50 < 2 µM for O=c1cc(NCCCN2CCN(c3nccc4ccccc34)CC2CO)c2ccccc2o1 (stereo not shown)
Found: class 0

Lookup: # check: IC50 < 2 µM for C[N+]1(CCCNc2cc(=O)oc3ccccc23)CCN(c2nccc3ccccc23)CC1
Found: class 0

Lookup: # check: IC50 < 2 µM for COc1ccc2nccc(N3CCC(NCc4cc5c([nH]4)c(=O)oc4ccc(F)cc45)CC3)c2n1
Found: class 1

Lookup: # check: IC50 < 2 µM for O=c1cc(N[C@H]2C[C@H](N3CCN(c4nccc5ccccc45)CC3)C2)c2ccccc2o1
Found: class 0

Lookup: # check: IC50 < 2 µM for O=c1cc(NCCCN2CCC(c3nccc4ccccc34)CC2)c2ccccc2o1
Found: class 0

Lookup: # check: IC50 < 2 µM for NC(CN1CCN(c2nccc3ccc(F)cc23)CC1)c1nc2c(=O)oc3ccccc3c2[nH]1 (stereo not shown) [Compound 158, hydrochloride]
Found: class 1

Lookup: # check: IC50 < 2 µM for O=c1nc(NCC(O)CN2CCN(c3nccc4ccc(F)cc34)CC2)c2cc(F)ccc2o1 (stereo not shown)
Found: class 1

Lookup: # check: IC50 < 2 µM for O=c1nc(NCC(O)CN2CCN(c3nccc4ncc(C(F)(F)F)cc34)CC2)c2cc(F)ccc2o1 (stereo not shown)
Found: class 0

Lookup: # check: IC50 < 2 µM for Fc1ccc2ccnc(N3CCN(CCNCc4cc5c(cn4)OCCC5)CC3)c2c1
Found: class 0

Lookup: # check: IC50 < 2 µM for O=c1cc(NCCCN2CCN(c3nccc4ccc(F)cc34)CC2)c2ccccc2o1
Found: class 1

Lookup: # check: IC50 < 2 µM for O=c1cc(NCC(O)CN2CCN(c3nccc4ccccc34)CC2)c2ccccc2o1 (racemic)
Found: class 0

Lookup: # check: IC50 < 2 µM for O=c1cc(CC(O)CCN2CCN(c3nccc4ccc(F)cc34)CC2)c2ccccc2o1 (stereo not shown)
Found: class 0
